Tested on: SF-295 CNS
Assay: NCI-60 one-dose screen, 48 h (100 = growth as untreated, 0 = no growth, -100 = all killed)
Conditions: 10 µM unless noted
Procedure: Cells are grown in 96 well plates and exposed to the test compound for 48 hours. Compounds are tested at a single concentration, which is 10^-5 M for most compounds. The reported endpoint is percent growth (GI% or GIPRCNT), where numbers from 0 - 100% represent growth inhibition, and numbers from -100% - 0 represent cell death. For example, a value of 40 represents 60% growth inhibition. A value of 0 means no net growth occurred over the course of the experiment. […]
Compounds without any hit were thinned out: in the full panel of roughly 83,000, 20% have a hit.
# growth per record follows
ASSAY_METRIC: growth (%)

[[record]]
cpd_smiles = "COc1ccc2c(c1)/C(=N/c1n[nH]c(=S)s1)C(=O)N2"
result = 106

[[record]]
cpd_smiles = "Cc1cc(Nc2ccc(C(=O)N3CCCC3)cc2)nc(NCCCNc2ccnc3cc(Cl)ccc23)n1"
result = 103

[[record]]
cpd_smiles = "CC(C)(C)n1cc(-c2ccnc(NCCNS(=O)(=O)c3ccc(O)cc3)c2)c(-c2cccc(O)c2)n1"
result = 101

[[record]]
cpd_smiles = "COCCn1cc(-c2csc(-c3c[nH]c4ccc(Br)cc34)n2)c2cccnc21"
result = 17.7

[[record]]
cpd_smiles = "CN1CCN(CC(=O)Nc2ccc3ncnc(Nc4ccc(Oc5cccc(C(F)(F)F)c5)c(Cl)c4)c3c2)CC1"
result = -44.7

[[record]]
cpd_smiles = "C=C(C)[C@@H]1CC[C@]2(COC(C)=O)CC[C@]3(C)[C@H](CC[C@@H]4[C@@]5(C)CCCN(C(C)=O)C(C)(C)[C@@H]5CC[C@]43C)[C@@H]12"
result = 104

[[record]]
cpd_smiles = "C=C(C)[C@@H]1CC[C@]2(C(=O)N3CCN(C)CC3)CC[C@]3(C)[C@H](CC[C@@H]4[C@@]5(C)CC[C@H](OC(=O)c6ccccc6C(=O)O)C(C)(C)[C@@H]5CC[C@]43C)[C@@H]12"
result = 104

[[record]]
cpd_smiles = "COc1cc(/C=N/Nc2ccc(Br)cc2)cc(OC)c1OC"
result = 60.9

[[record]]
cpd_smiles = "CN(CCCNC(=O)Cc1ccc2ccc3cccc4ccc1c2c34)CCCNc1cc(-c2ccc3ccccc3c2)nc2ccccc12"
result = -36

[[record]]
cpd_smiles = "C=C1C(=O)O[C@H]2[C@H]1CC/C(COC(=O)c1ccc(C(=O)O)s1)=C\\CC[C@@]1(C)O[C@@H]21"
result = 81

[[record]]
cpd_smiles = "O=C(Cc1ccc(/C=C/C(=O)c2ncc[nH]2)cc1)Nc1cc(C(F)(F)F)cc(C(F)(F)F)c1"
result = 93.7

[[record]]
cpd_smiles = "C=C1C(=O)O[C@H]2[C@H]1CC/C(COC(=O)/C=C/C(=O)OC/C1=C/CC[C@@]3(C)O[C@H]3[C@H]3OC(=O)C(=C)[C@@H]3CC1)=C\\CC[C@@]1(C)O[C@@H]21"
result = 115

[[record]]
cpd_smiles = "COc1ccc(/C=C2\\COc3ccc(O)cc3C2=O)cc1"
result = 108

[[record]]
cpd_smiles = "COC(=O)/C=C1/SC(=Nc2ccc([N+](=O)[O-])cc2)N(CCc2c[nH]c3ccc(O)cc23)C1=O"
result = 59.5

[[record]]
cpd_smiles = "COc1cc(-c2nc3sccn3c2-c2ccnc(NCCNS(=O)(=O)c3ccc(Cl)cc3)n2)ccc1F"
result = 40.5

[[record]]
cpd_smiles = "C=C1C(=O)O[C@H]2[C@H]1CC/C(COC(=O)/C=C\\C(=O)NCc1ccc(Cn3c(=O)sn(CCCCC)c3=O)cc1)=C\\CC[C@@]1(C)O[C@@H]21"
result = 101

